Molecular target: Hexose transporter 1 (Plasmodium falciparum)
Assay: ST_JUDE_LEISH: Cytotoxicity at 2uM final concentration against transgenic Leishmania Mexicana promastigotes LmPfHT that are glucose transport deficient and complemented with the Plasmodium falciparum hexose transporter. Activity is measured by DNA content using SYBR green in vitro
Format: functional
inhibition values by entry
Respond numerically; units are % and should not be typed.

Observe how each entry below is paired with its result.
> print(dat)
                                smiles.text  observed.property  measured.number
1  O=C(Nc1ccc(C(=O)N2CCN(CCN3CCN(c4cccc(C(F)(F)F)c4)CC3)CC2)cc1)c1cc(Cl)cc(Cl)c1         inhibition             0.79
2  O=C(NCC1CC1)C1CCN(C(c2ccc(Cl)cc2)c2ccc(Cl)cc2)CC1         inhibition              1.5

Enquiry: Return inhibition measured with Hexose transporter 1 (Plasmodium falciparum) given this compound: CCCN(CCC)C(=S)N/N=C1/C(=O)Nc2ccccc21
Return: -0.6

Enquiry: Return inhibition measured with Hexose transporter 1 (Plasmodium falciparum) given this compound: COc1ccc2[nH]cc(C3CCN(CCCCCNC(=O)c4ccc(-c5ccccc5)cc4)CC3)c2c1
Return: 3.36

Enquiry: Return inhibition measured with Hexose transporter 1 (Plasmodium falciparum) given this compound: O=C(Nc1ccc(Cl)cc1)c1ccc(CN2CCCN(Cc3ccc(F)cc3)CC2)cc1
Return: 1.23

Enquiry: Return inhibition measured with Hexose transporter 1 (Plasmodium falciparum) given this compound: CN1CCN(c2cc3c(cc2Br)CCN3C(=O)Nc2ccc(-c3cnc4ccccc4c3)cc2)CC1
Return: 100

Enquiry: Return inhibition measured with Hexose transporter 1 (Plasmodium falciparum) given this compound: COc1cc2nc(N3CCC(C(N)=O)CC3)nc(NCc3ccccc3)c2cc1OC
Return: 1.29

Enquiry: Return inhibition measured with Hexose transporter 1 (Plasmodium falciparum) given this compound: Nc1nc(-c2ccc3c(Nc4ccc(F)c(Cl)c4)ccnc3c2)cs1
Return: 4.08

Enquiry: Return inhibition measured with Hexose transporter 1 (Plasmodium falciparum) given this compound: O=C(N[C@@H](Cc1ccccc1)CN1CCC(Oc2ccc(F)cc2)CC1)c1ccc(OCCCN2CCCCC2)cc1
Return: 10.5

Enquiry: Return inhibition measured with Hexose transporter 1 (Plasmodium falciparum) given this compound: CCCCCCCN1CC[C@@H](CCCc2ccnc3ccc(OCCCCN/C(N)=N/O)cc23)[C@@H](CC)C1
Return: 2.68

Enquiry: Return inhibition measured with Hexose transporter 1 (Plasmodium falciparum) given this compound: O=C(Nc1cccc(Oc2ccccc2)c1)N[C@H]1CCN(Cc2ccc(OCCCN3CCCCC3)cc2)C1
Return: 5.18

----------
Target: Solute carrier family 2, facilitated glucose transporter member 1 (Homo sapiens) (UniProt P11166)
Sequence (P11166 whole entry): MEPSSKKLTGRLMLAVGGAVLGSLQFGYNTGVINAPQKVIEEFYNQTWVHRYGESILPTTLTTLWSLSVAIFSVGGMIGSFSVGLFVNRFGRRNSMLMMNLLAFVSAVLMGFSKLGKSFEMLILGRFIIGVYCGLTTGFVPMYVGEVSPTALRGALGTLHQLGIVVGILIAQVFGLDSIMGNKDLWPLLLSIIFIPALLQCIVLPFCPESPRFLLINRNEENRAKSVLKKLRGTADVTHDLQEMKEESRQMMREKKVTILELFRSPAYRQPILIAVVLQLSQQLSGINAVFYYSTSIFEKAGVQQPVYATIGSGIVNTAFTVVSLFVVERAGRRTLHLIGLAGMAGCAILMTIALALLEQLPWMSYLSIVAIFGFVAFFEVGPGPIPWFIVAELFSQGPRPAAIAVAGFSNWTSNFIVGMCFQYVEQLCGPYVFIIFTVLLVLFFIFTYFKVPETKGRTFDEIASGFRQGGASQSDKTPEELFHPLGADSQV
Assay: ST_JUDE_LEISH: Cytotoxicity at 2uM final concentration against transgenic Leishmania Mexicana promastigotes LmGLUT1 that are glucose transport deficient and complemented with the human glucose transporter GLUT1. Activity is measured by DNA content using SYBR green in vitro
Assay type: functional
inhibition values by entry
Respond numerically; units are % and should not be typed.

> print(dat)
                                   molecule  observed.property  measured.number
1  COc1ccc(CNC(=O)Nc2cc3cc(-c4ccc(CN5CCCC5)cc4)ccc3n3c(C)nnc23)cc1         inhibition             2.37

Enquiry: State the recorded inhibition for this entry: O=C(Nc1cccc(-c2cccc(-c3nc4ccccc4[nH]3)c2)c1)Nc1ccc2c(c1)OCO2
Return: 4.3

Enquiry: State the recorded inhibition for this entry: CC(Nc1ccnc2cc(Cl)ccc12)c1ccc(S(N)(=O)=O)cc1 (centres undefined)
Return: -1.53

Enquiry: State the recorded inhibition for this entry: COc1ccc2c(=O)c(-c3ccc(OC(F)(F)F)cc3)c(C)[nH]c2c1
Return: -0.72

Enquiry: State the recorded inhibition for this entry: Brc1cc(Br)c2c(c1)C(NCCCNc1nc3ncccc3[nH]1)CCN2 (centres undefined)
Return: 68

Enquiry: State the recorded inhibition for this entry: CC(C)NCc1ccc(-c2cccc(NC(=O)c3ccc(F)cc3)c2)cc1
Return: 6.57

Enquiry: State the recorded inhibition for this entry: Cc1cn(CC(=O)Nc2cccc(-c3cccc(-c4nc5cc(C(F)(F)F)ccc5[nH]4)c3)c2)c(=O)[nH]c1=O
Return: 9.16

Enquiry: State the recorded inhibition for this entry: Oc1ccc2ccccc2c1CNC1CCCCCC1
Return: 0.85

Enquiry: State the recorded inhibition for this entry: CN(C(=O)Nc1ccc(F)cc1)C1CCN(CCCCCNC(=O)/C=C/c2ccc(Cl)c(Cl)c2)CC1
Return: 1

Enquiry: State the recorded inhibition for this entry: O=C(/C=C/c1ccc(Cl)c(Cl)c1)NCCCCN1CCCN(C(=O)Nc2cc(Cl)cc(Cl)c2)CC1
Return: 0.48

Enquiry: State the recorded inhibition for this entry: ON=C1CCc2cc(-c3[nH]c(-c4cccc(OCCNCc5ccc(F)cc5)c4)nc3-c3ccncc3)ccc21
Return: 16.7

Enquiry: State the recorded inhibition for this entry: CN(C)CCC1CCN(CCS(=O)(=O)c2cccc(Nc3ccc(-c4ccsc4)cn3)c2)CC1
Return: -0.36

Enquiry: State the recorded inhibition for this entry: N=C(NCCCc1ccccc1)c1cccc(C(=N)NCCCc2ccccc2)n1
Return: -0.39

Enquiry: State the recorded inhibition for this entry: CN1CCN(c2ccc(-c3cccc(NC(=O)c4ccc5ccccc5c4)c3)nn2)CC1
Return: 14

Enquiry: State the recorded inhibition for this entry: C=C[C@H]1CN(CCCCCCC)CC[C@H]1C[C@@H](Cc1ccnc2ccc(OC)cc12)OC(=O)[C@](OC)(c1ccccc1)C(F)(F)F
Return: 0.1

Enquiry: State the recorded inhibition for this entry: CC(Cc1ccc(OCc2ccccc2)cc1)Nc1nc(O)c2ccccc2n1 (centres undefined)
Return: 2.96
